Reported calcium oscillation score is given for each of the following sequences.
testedSystem: Tau
testDetails: rat primary cortical neurons, FLIPR, 25 uM ASO
Bases are written 5' to 3'; sugars and linkages follow in the same order, as letters with counts (s phosphorothioate, o phosphodiester; PS: all linkages phosphorothioate). The collection does not say whether C is 5-methylated. l = locked nucleic acid (LNA); d = 2'-deoxy (DNA)

Below, each entry is followed by its recorded calcium oscillation score result.
TTCCACATTTTACAGTA (sugars l3 d10 l4, PS) = 76.6 % of control
TTCTCAGCACACCATTA (sugars l3 d12 l2, PS) = 60.1 % of control
GAGACCACATTATCATCCAT (sugars l3 d14 l3, PS) = 52.4 % of control
CTCGCGGAAGGTCAGC (sugars l3 d10 l3, PS) = 0 % of control
TTTCTCTCTTAACTTTATTT (sugars l4 d12 l4, PS) = 90.4 % of control

Consider now this further sequence.
Give the value of calcium oscillation score reported for the following: TTTATGATGGATGTTGCCTA (sugars l3 d14 l3, PS)
6.64 % of control
